# measurementTarget: human CD28 (human, UniProt P10747 19-220)
# methodDescription: flow cytometry, Jurkat cells (CD28)
endpointLabel: MFI at 33.3 nM (MFI)
Express your answer in MFI, writing the number without its unit.

binder	reported
WT CD80 ECD-Fc (Fc fusion, not shown: a dimerising Fc or GST, Wild-type control) VIHVTKEVKEVATLSCGHNVSVEELAQTRIYWQKEKKMVLTMMSGDMNIWPEYKNRTIFDITNNLSIVILALRPSDEGTYECVVLKYEKDAFKREHLAEVTLSVKADFPTPSISDFEIPTSNIRRIICSTSGGFPEPHLSWLENGEELNAINTTVSQDPETELYAVSSKLDFNMTTNHSFMCLIKYGHLRVNQTFNWNTTKQEHFPDN	31
CD80 IgV-Fc T13R/Q33R/E35D/M38I/M47L/V68M (Fc fusion, not shown: a dimerising Fc or GST) VIHVTKEVKEVARLSCGHNVSVEELAQTRIYWRKDKKIVLTMMSGDLNIWPEYKNRTIFDITNNLSIMILALRPSDEGTYECVVLKYEKDAFKREHLAEVTLSVKAD	13.8
CD80 WT IgV-Fc (Fc fusion, not shown: a dimerising Fc or GST, Wild-type control; also called WT CD80-IgV-Fc) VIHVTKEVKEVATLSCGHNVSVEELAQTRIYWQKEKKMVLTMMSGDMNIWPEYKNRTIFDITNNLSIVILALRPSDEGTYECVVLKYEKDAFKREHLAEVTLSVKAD	95
CD80 IgV-Fc S21P/E35D/K37E/D46E/M47I/V68M/R94L (Fc fusion, not shown: a dimerising Fc or GST) VIHVTKEVKEVATLSCGHNVPVEELAQTRIYWQKDKEMVLTMMSGEINIWPEYKNRTIFDITNNLSIMILALRPSDEGTYECVVLKYEKDAFKLEHLAEVTLSVKAD	284
CD80 IgV-Fc T13R/Q33L/E35D/M47V/T62S/V68M/L85M (Fc fusion, not shown: a dimerising Fc or GST) VIHVTKEVKEVARLSCGHNVSVEELAQTRIYWLKDKKMVLTMMSGDVNIWPEYKNRTIFDISNNLSIMILALRPSDEGTYECVVMKYEKDAFKREHLAEVTLSVKAD	16

// next entry
May I ask what MFI at 33.3 nM has been recorded for CD80 IgV-Fc T13R/Q33R/E35D/M38I/M47L/V68M/L85M (Fc fusion, not shown: a dimerising Fc or GST) VIHVTKEVKEVARLSCGHNVSVEELAQTRIYWRKDKKIVLTMMSGDLNIWPEYKNRTIFDITNNLSIMILALRPSDEGTYECVVMKYEKDAFKREHLAEVTLSVKAD ?
14.2

From: patent US20210130436A1
